- Tested system: LOXL2 (Homo sapiens)
- Assay details: Time-dependent inhibition of LOXL2, Amplex Red oxidation assay
- Type: biochemical
- Recorded conditions: 2 h incubation, 37 °C
Test readout: IC50 (µM)
// units = µM; emit number, no label

Q: I would be grateful if you could share the reported IC50 for NC/C(=C\F)CS(=O)(=O)c1ccccc1 [Compound 1] .
Ans: 0.41

----------
- Tested system: Human recombinant LOXL4 (Homo sapiens)
- Sequence (Q96JB6 25-756): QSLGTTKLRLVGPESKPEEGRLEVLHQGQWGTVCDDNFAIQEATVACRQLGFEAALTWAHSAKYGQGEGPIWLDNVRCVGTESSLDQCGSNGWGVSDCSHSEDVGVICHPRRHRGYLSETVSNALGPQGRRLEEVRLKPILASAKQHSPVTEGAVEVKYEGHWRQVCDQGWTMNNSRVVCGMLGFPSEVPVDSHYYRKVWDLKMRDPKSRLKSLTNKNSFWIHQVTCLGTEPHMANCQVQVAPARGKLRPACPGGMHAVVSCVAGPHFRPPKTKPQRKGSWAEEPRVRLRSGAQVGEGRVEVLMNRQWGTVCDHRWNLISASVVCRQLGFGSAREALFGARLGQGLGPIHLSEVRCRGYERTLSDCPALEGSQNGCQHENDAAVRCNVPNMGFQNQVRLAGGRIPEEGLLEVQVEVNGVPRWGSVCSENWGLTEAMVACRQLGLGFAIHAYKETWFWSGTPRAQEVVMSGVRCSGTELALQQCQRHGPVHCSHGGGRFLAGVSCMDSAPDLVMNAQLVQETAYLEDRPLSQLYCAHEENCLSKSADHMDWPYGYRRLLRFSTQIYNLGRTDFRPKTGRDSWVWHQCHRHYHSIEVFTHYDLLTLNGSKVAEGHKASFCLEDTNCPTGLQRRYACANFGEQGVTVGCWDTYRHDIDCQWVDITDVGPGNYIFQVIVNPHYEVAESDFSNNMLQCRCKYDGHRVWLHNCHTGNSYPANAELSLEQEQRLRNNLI
- Assay details: LOXL4 inhibition, Amplex Red oxidation assay
- Recorded conditions: 30 min incubation with enzyme at 37 °C
Test readout: IC50 (µM)
// units = µM; emit number, no label

Q: I would be grateful if you could share the reported IC50 for N#CCCN [BAPN, β-aminopropionitrile, reference compound] .
Ans: 0.3

Q: "NC/C(=C\F)CS(=O)(=O)c1ccccc1" ?
Ans: 4.7

----------
- Tested system: LOXL2 (Homo sapiens, UniProt Q9Y4K0)
- Sequence (Q9Y4K0 26-774): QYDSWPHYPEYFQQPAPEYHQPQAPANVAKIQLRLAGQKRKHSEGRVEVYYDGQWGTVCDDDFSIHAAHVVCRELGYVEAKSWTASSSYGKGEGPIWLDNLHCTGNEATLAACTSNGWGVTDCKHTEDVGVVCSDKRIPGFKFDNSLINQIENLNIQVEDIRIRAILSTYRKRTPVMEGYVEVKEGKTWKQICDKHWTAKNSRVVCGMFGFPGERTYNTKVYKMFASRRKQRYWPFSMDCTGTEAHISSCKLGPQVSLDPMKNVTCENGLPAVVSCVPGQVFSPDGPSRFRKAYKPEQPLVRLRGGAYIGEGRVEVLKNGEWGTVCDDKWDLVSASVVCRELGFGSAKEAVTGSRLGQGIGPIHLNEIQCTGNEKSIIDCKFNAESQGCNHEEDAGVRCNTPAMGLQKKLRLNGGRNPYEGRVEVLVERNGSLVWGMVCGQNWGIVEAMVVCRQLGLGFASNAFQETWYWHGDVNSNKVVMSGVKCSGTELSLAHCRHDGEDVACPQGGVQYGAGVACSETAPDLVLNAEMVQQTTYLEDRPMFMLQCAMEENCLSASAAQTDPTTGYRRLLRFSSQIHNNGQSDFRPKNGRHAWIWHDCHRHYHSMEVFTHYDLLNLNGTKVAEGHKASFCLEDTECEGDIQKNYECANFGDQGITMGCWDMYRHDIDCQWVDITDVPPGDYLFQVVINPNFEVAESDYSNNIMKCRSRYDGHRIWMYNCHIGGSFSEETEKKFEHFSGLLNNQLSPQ
- Assay details: Time-dependent inhibition of LOXL2, Amplex Red oxidation assay
- Type: biochemical
- Recorded conditions: 30′ incubation, 37 °C
Test readout: pIC50
// returns pIC50 (minus log10 of molar concentration), number only

Q: I would be grateful if you could share the reported pIC50 for "NC/C(=C\F)CS(=O)(=O)c1ccccc1" .
Ans: 5.77

----------
- Tested system: LOXL1 (Homo sapiens, UniProt Q08397)
- Sequence (Q08397 96-574): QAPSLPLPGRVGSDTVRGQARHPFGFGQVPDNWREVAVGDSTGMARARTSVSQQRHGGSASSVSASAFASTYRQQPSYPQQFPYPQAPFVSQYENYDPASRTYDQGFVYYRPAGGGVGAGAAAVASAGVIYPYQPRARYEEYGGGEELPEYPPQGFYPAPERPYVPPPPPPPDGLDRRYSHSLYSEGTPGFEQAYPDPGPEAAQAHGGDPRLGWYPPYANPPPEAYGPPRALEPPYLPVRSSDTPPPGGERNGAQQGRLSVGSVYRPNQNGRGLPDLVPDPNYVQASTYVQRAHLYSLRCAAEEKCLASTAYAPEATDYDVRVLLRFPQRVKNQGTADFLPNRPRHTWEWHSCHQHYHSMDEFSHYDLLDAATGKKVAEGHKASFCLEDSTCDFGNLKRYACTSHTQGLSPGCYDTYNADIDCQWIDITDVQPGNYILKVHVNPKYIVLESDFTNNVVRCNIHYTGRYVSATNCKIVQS
- Assay details: Time-dependent inhibition of LOXL1, Amplex Red oxidation assay
- Format: biochemical
- Recorded conditions: 30′ incubation, 37 °C
- Experimental: The time dependent inhibitory effects of the Compound 1 of the present invention were tested against the given LOXL1 preparation and LOXL2 preparation using a method based on the detection of hydrogen peroxide with an Amplex Red oxidation assay [Zhou et al. 1997]. The assay was developed for use in either 384 or 96 well format. […] The fluorescence (RFU) was read every 2.5 min for 30 min at 37 °C, excitation 544 nm and emission 590 nm (Optima; BMG labtech). […]
Test readout: pIC50
// returns pIC50 (minus log10 of molar concentration), number only

Q: I would be grateful if you could share the reported pIC50 for NC/C(=C\F)CS(=O)(=O)c1ccccc1 [Compound 1] .
Ans: 5.02

----------
- Tested system: LOXL2 (Homo sapiens, UniProt Q9Y4K0)
- Assay details: LOXL2 inhibition, Amplex Red oxidation assay
- Format: biochemical
- Recorded conditions: 2 h incubation with enzyme at 37 °C; read-out: Human LOXL2 Activity IC50
pIC50: −log10 of the molar value.
Test readout: pIC50

Solved entries (count: 3):
- Mol: "Cc1cccc(S(=O)(=O)C/C(=C/F)CN)c1"
  pIC50: "> 5.70"
- Mol: "NC/C(=C\\F)CS(=O)(=O)c1cccc(Br)c1"
  pIC50: "> 5.70"
- Mol: "NC/C(=C\\F)CS(=O)(=O)c1ccc(C(=O)O)cc1"
  pIC50: "> 5.00"

Q: I would be grateful if you could share the reported pIC50 for "NC/C(=C\F)CS(=O)(=O)c1ccccc1" .
Ans: > 5.70

----------
- Tested system: Bovine LOX (Bos taurus, UniProt P33072)
- Sequence (P33072 170-418): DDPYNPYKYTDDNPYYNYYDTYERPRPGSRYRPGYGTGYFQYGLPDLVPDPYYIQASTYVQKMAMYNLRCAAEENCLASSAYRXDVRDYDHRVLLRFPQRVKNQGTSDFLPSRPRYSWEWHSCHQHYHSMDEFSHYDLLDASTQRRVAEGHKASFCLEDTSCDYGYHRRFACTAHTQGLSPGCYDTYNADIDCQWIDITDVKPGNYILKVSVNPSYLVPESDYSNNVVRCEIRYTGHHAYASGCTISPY
- Assay details: LOX inhibition, hydrogen peroxide Amplex Red oxidation assay
- Type: biochemical
- Recorded conditions: 2 h incubation with enzyme at 37 °C
pIC50: −log10 of the molar value.
Test readout: pIC50

Solved entries (count: 5):
- Mol: "NC/C(=C\\F)CS(=O)(=O)c1cccc(C(=O)O)c1"
  Result: "> 5.00"
- Mol: "CS(=O)(=O)c1cccc(Oc2ccccc2S(=O)(=O)C/C(=C/F)CN)c1"
  Result: "> 5.30"
- Mol: "NC/C(=C\\F)CS(=O)(=O)c1cccc2c1OCCO2"
  Result: "> 5.00"
- Mol: "Cc1ccc(S(=O)(=O)C/C(=C/F)CN)cc1"
  Result: "> 5.30"
- Mol: "CS(=O)(=O)c1cccc(S(=O)(=O)C/C(=C/F)CN)c1"
  Result: "> 5.70"

Q: Request body: readout pIC50, system Bovine LOX (Bos taurus, UniProt P33072), query "NC/C(=C\F)CS(=O)(=O)c1ccccc1" . Return the value.
Ans: > 5.30
